target-or-system: D(1A) dopamine receptor (Rattus norvegicus)
Sequence (P18901 whole entry): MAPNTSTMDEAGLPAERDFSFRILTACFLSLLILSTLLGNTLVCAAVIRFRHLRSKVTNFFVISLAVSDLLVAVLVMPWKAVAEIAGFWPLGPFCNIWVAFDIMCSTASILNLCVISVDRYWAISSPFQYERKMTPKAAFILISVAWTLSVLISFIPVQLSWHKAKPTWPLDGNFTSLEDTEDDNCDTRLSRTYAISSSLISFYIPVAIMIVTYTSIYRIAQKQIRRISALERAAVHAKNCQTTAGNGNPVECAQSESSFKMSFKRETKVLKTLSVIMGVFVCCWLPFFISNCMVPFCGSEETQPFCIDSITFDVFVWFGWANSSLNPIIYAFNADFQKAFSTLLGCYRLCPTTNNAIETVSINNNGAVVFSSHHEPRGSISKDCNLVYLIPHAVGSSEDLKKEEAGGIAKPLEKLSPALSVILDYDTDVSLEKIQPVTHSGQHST
pKi: −log10 of the molar value.

{"compound": "CCCN(CCC)C1Cc2c[nH]c3ccc(C(C)=O)c(c23)C1 (stereo unspecified)", "pKi": 6.00}

###

target-or-system: Gamma-aminobutyric acid receptor subunit alpha-1 (Rattus norvegicus)
Sequence (P62813 whole entry): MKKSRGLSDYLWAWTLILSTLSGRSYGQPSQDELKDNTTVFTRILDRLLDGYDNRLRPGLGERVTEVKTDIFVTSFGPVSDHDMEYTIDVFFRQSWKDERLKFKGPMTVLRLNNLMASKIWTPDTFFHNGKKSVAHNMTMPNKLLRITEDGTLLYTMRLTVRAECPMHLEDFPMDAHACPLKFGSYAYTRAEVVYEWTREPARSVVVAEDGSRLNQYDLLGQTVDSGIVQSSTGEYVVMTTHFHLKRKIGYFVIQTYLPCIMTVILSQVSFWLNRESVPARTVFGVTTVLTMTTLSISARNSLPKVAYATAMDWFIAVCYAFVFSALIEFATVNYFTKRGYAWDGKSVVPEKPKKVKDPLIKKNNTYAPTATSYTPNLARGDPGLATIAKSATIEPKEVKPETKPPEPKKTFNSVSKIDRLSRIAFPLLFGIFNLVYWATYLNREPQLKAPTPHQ
property-measured: Ki (nM)

{"compound": "CCCN(CCC)C1Cc2c[nH]c3ccc(C(C)=O)c(c23)C1 (stereo unspecified)", "property-measured": "Ki", "quantitative-readout": 1000}

###

target-or-system: UniProt:P28564
Sequence (P28564 whole entry): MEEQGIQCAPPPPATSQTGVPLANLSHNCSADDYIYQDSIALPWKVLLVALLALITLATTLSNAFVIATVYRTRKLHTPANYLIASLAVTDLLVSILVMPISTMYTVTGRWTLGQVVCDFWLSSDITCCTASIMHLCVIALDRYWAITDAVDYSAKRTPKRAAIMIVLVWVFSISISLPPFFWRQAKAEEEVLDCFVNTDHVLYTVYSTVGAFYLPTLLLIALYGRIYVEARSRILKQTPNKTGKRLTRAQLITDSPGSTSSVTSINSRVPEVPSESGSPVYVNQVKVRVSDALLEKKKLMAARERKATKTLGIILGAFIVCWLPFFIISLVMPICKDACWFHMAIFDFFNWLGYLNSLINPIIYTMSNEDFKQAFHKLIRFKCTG
property-measured: Ki

{"compound": "CCCN(CCC)C1Cc2c[nH]c3ccc(C(C)=O)c(c23)C1 (stereo unspecified) [LY-293384]", "property-measured": "Ki", "result": "1000 nM"}

###

target-or-system: UniProt P31390
Sequence (P31390 whole entry): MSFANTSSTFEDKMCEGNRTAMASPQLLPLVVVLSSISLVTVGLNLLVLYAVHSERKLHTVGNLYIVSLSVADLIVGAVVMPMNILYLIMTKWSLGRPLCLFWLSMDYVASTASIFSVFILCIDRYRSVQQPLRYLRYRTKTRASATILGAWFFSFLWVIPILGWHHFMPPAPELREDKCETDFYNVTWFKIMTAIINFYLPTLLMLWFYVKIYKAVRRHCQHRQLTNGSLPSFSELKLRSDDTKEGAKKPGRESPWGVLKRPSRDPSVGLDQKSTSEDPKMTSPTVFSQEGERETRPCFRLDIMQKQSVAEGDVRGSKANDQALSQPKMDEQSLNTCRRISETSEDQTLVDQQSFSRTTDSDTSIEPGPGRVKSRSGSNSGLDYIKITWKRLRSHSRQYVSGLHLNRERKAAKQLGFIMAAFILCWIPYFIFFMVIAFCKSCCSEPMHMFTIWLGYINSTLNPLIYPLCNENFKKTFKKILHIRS
property-measured: Ki (µM)

{"compound": "CCCN(CCC)C1Cc2c[nH]c3ccc(C(C)=O)c(c23)C1 (stereo unspecified) [LY-293384]", "property-measured": "Ki", "quantitative-readout": 1}

###

target-or-system: Alpha-2C adrenergic receptor (Rattus norvegicus)
Sequence (P22086 whole entry): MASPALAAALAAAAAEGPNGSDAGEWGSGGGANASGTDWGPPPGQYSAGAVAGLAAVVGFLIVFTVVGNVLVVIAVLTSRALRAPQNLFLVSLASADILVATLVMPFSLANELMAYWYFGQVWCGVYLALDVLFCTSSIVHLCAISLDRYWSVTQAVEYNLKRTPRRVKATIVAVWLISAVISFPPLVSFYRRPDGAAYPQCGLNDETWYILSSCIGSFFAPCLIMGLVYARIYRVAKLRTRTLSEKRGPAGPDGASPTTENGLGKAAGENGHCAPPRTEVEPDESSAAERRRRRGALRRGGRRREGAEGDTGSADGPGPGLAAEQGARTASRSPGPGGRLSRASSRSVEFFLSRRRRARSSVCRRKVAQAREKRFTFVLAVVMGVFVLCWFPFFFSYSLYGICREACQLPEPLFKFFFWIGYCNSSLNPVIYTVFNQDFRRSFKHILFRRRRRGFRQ
pKi: −log10 of the molar value.
property-measured: pKi

{"compound": "CCCN(CCC)C1Cc2c[nH]c3ccc(C(C)=O)c(c23)C1 (stereo unspecified)", "quantitative-readout": 6.00}

###

target-or-system: 5-hydroxytryptamine receptor 2A (Rattus norvegicus, UniProt P14842)
Sequence (P14842 whole entry): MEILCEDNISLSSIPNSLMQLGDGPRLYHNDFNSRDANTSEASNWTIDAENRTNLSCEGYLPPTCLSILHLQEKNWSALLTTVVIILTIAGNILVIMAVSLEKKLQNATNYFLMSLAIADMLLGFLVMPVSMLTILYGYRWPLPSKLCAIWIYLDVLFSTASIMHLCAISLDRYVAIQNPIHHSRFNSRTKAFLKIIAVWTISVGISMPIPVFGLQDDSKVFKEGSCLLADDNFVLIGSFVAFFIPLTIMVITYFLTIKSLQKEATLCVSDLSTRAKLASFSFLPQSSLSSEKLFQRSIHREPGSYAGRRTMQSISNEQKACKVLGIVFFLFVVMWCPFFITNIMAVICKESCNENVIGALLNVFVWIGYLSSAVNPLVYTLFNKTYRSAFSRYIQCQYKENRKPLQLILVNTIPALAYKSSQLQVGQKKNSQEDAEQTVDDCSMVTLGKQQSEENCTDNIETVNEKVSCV

{"compound": "CCCN(CCC)C1Cc2c[nH]c3ccc(C(C)=O)c(c23)C1 (stereo unspecified)", "uom": "nM", "Ki": 1000}

###

target-or-system: Beta-2 adrenergic receptor (Rattus norvegicus, UniProt P10608)
Sequence (P10608 whole entry): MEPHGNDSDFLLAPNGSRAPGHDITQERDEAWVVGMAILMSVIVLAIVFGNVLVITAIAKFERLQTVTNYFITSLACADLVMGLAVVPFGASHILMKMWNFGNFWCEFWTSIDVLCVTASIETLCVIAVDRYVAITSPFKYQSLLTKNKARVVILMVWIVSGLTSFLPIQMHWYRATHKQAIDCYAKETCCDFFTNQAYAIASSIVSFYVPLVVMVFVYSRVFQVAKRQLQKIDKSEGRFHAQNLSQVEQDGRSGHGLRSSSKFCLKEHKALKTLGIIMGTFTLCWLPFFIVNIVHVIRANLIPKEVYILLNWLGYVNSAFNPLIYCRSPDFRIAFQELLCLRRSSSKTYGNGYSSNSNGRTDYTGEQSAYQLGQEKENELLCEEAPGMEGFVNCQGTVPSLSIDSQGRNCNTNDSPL
property-measured: Ki (nM)

{"compound": "CCCN(CCC)C1Cc2c[nH]c3ccc(C(C)=O)c(c23)C1 (stereo unspecified)", "target-or-system": "Beta-2 adrenergic receptor (Rattus norvegicus, UniProt P10608)", "quantitative-readout": 1000}
